composite z-score: recorded values
Target: Torsin-1A-interacting protein 1 (Homo sapiens) (UniProt Q5JTV8)
Sequence (Q5JTV8 whole entry, looked up): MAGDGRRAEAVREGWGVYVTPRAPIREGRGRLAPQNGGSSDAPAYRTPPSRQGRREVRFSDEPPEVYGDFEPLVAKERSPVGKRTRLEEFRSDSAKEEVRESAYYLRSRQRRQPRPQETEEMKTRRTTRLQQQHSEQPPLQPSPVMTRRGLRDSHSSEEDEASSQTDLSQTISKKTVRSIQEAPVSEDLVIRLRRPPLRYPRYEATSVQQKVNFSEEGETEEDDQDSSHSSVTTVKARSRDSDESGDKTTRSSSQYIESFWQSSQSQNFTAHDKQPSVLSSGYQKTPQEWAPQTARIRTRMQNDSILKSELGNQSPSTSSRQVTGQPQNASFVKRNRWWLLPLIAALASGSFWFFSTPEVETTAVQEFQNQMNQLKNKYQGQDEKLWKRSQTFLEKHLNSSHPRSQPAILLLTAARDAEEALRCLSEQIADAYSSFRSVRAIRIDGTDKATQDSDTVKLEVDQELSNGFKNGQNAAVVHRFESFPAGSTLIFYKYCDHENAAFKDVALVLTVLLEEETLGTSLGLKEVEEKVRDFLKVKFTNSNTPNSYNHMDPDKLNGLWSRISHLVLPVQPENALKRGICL
Experiment: LAP1 binders from COS7 cell lysate, primary screen, small-molecule microarray, 635/667 nm fluorescence (AID 1116)
Settings: COS7-hLAP1 lysate binding, 635 nm fluorescence, higher = more signal
measurement-kind: composite z-score

- compound: "COCCCNC(=O)[C@@]1(c2ccc([N+](=O)[O-])cc2)CC(=O)N(C2CCCCC2)[C@@H]1c1ccc(CO)cc1"
  assayed-target: "Torsin-1A-interacting protein 1 (Homo sapiens) (UniProt Q5JTV8)"
  measured: -0.218
- compound: "COCCOC(=O)N1C(=O)[C@@]2(c3cc(C#CCNC(N)=O)ccc31)[C@H](c1ccc(OCCO)cc1)N1[C@H](c3ccccc3)[C@H](c3ccccc3)OC(=O)[C@H]1[C@@H]2C(=O)N1CCCCCCC1"
  assayed-target: "Torsin-1A-interacting protein 1 (Homo sapiens) (UniProt Q5JTV8)"
  measured: 0.242
- compound: "CO[C@H]1COC(=O)CC=C[C@H](C)[C@@H](OC)COC(=O)[C@H](Cc2ccccc2)NC(=O)CC=C[C@@H]1C"
  assayed-target: "Torsin-1A-interacting protein 1 (Homo sapiens) (UniProt Q5JTV8)"
  measured: -0.272
- compound: "C=C(/C(=C/C[C@@H](OC(=O)c1ccncc1)c1ccc(CO)o1)c1cnc2ccccc2c1)C(C)C"
  assayed-target: "Torsin-1A-interacting protein 1 (Homo sapiens) (UniProt Q5JTV8)"
  measured: 1.36
- compound: "O=C/C=C/c1ccc(/C=C/c2ccccc2)cc1"
  assayed-target: "Torsin-1A-interacting protein 1 (Homo sapiens) (UniProt Q5JTV8)"
  measured: 0.2
- compound: "CCC(=O)[C@]12O[C@@]3([C@@H]4C(=O)OCC[C@@H]41)N(CC)C(C)=C(C(=O)OC)[C@@H](c1ccccc1)N3C2=O"
  assayed-target: "Torsin-1A-interacting protein 1 (Homo sapiens) (UniProt Q5JTV8)"
  measured: -0.303
- compound: "Cc1ccc([C@@H]2CC=C(C(=O)O)[C@H](c3ccccc3)N2S(=O)(=O)c2ccc(C)cc2)cc1"
  assayed-target: "Torsin-1A-interacting protein 1 (Homo sapiens) (UniProt Q5JTV8)"
  measured: 1.9
- compound: "COCC(=C=CC[C@H](O)c1ccc(OCCO)cc1)C[C@H](O)c1ccccn1"
  assayed-target: "Torsin-1A-interacting protein 1 (Homo sapiens) (UniProt Q5JTV8)"
  measured: 0.925
- compound: "C=C(COC)/C(=C/C[C@@H](OC(=O)c1ccncc1)c1ccc(OCCO)cc1)c1cc(C(=O)OC)ccc1OC"
  assayed-target: "Torsin-1A-interacting protein 1 (Homo sapiens) (UniProt Q5JTV8)"
  measured: 1.45
- compound: "CO[C@@H]1COC(=O)[C@@H]2CCCN2C(=O)CC=C[C@@H](C)[C@H](OC)COC(=O)[C@@H]2CCCN2C(=O)CC=C[C@H]1C"
  assayed-target: "Torsin-1A-interacting protein 1 (Homo sapiens) (UniProt Q5JTV8)"
  measured: -0.233
- compound: "C[C@]1(C(=O)NCCN2CCOCC2)c2ccccc2C(=O)N(Cc2ccccc2)[C@H]1c1ccc(CO)cc1"
  assayed-target: "Torsin-1A-interacting protein 1 (Homo sapiens) (UniProt Q5JTV8)"
  measured: -0.705
- compound: "CO[C@H]1COC(=O)[C@H](C)COC(=O)[C@H](Cc2ccccc2)NC(=O)CC=C[C@H]1C"
  assayed-target: "Torsin-1A-interacting protein 1 (Homo sapiens) (UniProt Q5JTV8)"
  measured: -0.0597
- compound: "C[C@H]1NC(=O)[C@@H](C)NC(=O)[C@@]23C(=O)N[C@@H](Cc4ccccc4)C2[C@H](C)[C@@]2(C)O[C@H]2C3/C=C/C/C=C\\CNC1=O (stereo not given in full)"
  assayed-target: "Torsin-1A-interacting protein 1 (Homo sapiens) (UniProt Q5JTV8)"
  measured: -0.485
- compound: "COCCOC(=O)N1C(=O)[C@@]2(c3cc(C#CCCO)ccc31)[C@H](C(=O)N1CCCCCCC1)[C@H]1C(=O)O[C@H](c3ccccc3)[C@H](c3ccccc3)N1[C@@H]2c1ccc(O)cc1"
  assayed-target: "Torsin-1A-interacting protein 1 (Homo sapiens) (UniProt Q5JTV8)"
  measured: 2.56
- compound: "Cc1ccc(S[C@]2(C(=O)NCCN3CCOCC3)CC(=O)N(C3Cc4ccccc4C3)[C@@H]2c2ccc(CO)cc2I)cc1"
  assayed-target: "Torsin-1A-interacting protein 1 (Homo sapiens) (UniProt Q5JTV8)"
  measured: 0.0697
